# System: PC-3 prostate
# ASSAY NAME: NCI-60 one-dose screen, 48 h (100 = growth as untreated, 0 = no growth, -100 = all killed)
# MEASUREMENT CONDITIONS: 10 µM
About 83,000 compounds went through this panel and 20% of them were active in at least one assay; those are over-represented in the sample as a whole.
Reported growth values are given for each entry in this list.
ENDPOINT LABEL: growth (%)

- CPD SMILES: "NC(=O)NC(=O)c1ccc(Cl)cc1"
  TGT: "PC-3 prostate"
  UNIT LABEL: "%"
  QUANTITATIVE RESULT: 96.5
- CPD SMILES: "Nc1nc(N)c(N=Nc2ccc(C(=O)O)cc2)c(N)n1"
  TGT: "PC-3 prostate"
  UNIT LABEL: "%"
  QUANTITATIVE RESULT: 101
- CPD SMILES: "CNS(=O)(=O)c1ccc(Cl)c(Cl)c1"
  TGT: "PC-3 prostate"
  UNIT LABEL: "%"
  QUANTITATIVE RESULT: 113

----------
# System: MALME-3M melanoma
# ASSAY NAME: NCI-60 one-dose screen, 48 h (100 = growth as untreated, 0 = no growth, -100 = all killed)
# MEASUREMENT CONDITIONS: 10 µM
This is part of a sample that, as a whole, favours compounds with a hit. Of some 83,000 tested, about 20% had one in any assay.
Documented growth across a set of molecules

- MOLECULE: "COCCOC(=O)c1ccc(C(C)C)cc1"
  growth / %: 92.7
- MOLECULE: "CC(C)CCCC(=O)O"
  growth / %: 98.5
- MOLECULE: "Nc1nc(N)c2cc(S(=O)(=O)c3cccc(C(F)(F)F)c3)ccc2n1"
  growth / %: 63.8
- MOLECULE: "CC(C)OC(C(=O)O)c1ccccc1 (stereo not drawn)"
  growth / %: 133
- MOLECULE: "N=c1c(C(=O)OCc2ccccc2)ncc(CCl)n1O"
  growth / %: 113
- MOLECULE: "Cc1c(C(=O)O)c(=O)n(-c2ccccc2)n1C"
  growth / %: 163
- MOLECULE: "Nc1ccc(N=Nc2ccc(S(=O)(=O)O)cc2)c2ccccc12"
  growth / %: 83.4
- MOLECULE: "O=[N+]([O-])c1ccc(S(=O)(=O)NN=C2CCCCC2)cc1"
  growth / %: 101
- MOLECULE: "CSC[C@H](NC(=O)COc1cccc2cnccc12)C(=O)NC(Cc1ccccc1)C(O)C(=O)N1CSC[C@H]1C(=O)NC(C)(C)C (stereo partly drawn)"
  growth / %: 105
- MOLECULE: "COc1cc2c3c(n(C)c(=O)c2cc1OC)-c1cc2c(cc1C3=O)OCO2"
  growth / %: 81.6
- MOLECULE: "OC(c1ccccn1)C(O)c1ccccn1 (stereo not drawn)"
  growth / %: 122
- MOLECULE: "COC(=O)c1ccc(NC(=O)CCl)cc1"
  growth / %: 79.9
- MOLECULE: "CCOc1ccc(/C=N/N=C(N)N)cc1OCC"
  growth / %: 113

----------
In this section we review reported growth values for a set of compounds.
# Tested on: IGROV1 ovarian
# ASSAY NAME: NCI-60 one-dose screen, 48 h (100 = growth as untreated, 0 = no growth, -100 = all killed)
# MEASUREMENT CONDITIONS: 10 µM
The panel holds about 83,000 compounds, 20% with a hit somewhere; the sample as a whole holds those more often.

- COMPOUND: "O=C(c1ccc(O)cc1)c1ccc(O)cc1"
  growth / %: 108
- COMPOUND: "COc1cc2c3cc1Oc1c(OC)c(OC)cc4c1C(Cc1ccc(O)c(c1)Oc1ccc(cc1)CC3N(C)CC2)N(C)CC4 (configuration not stated)"
  growth / %: 13.7
- COMPOUND: "O=C(O)C(O)c1ccccc1 (configuration not stated)"
  growth / %: 107
- COMPOUND: "Cc1cc(C)c(N)c(S(=O)(=O)O)c1"
  growth / %: 108
- COMPOUND: "CC(=O)c1ccc2c(ccc3ccccc32)c1"
  growth / %: 101
- COMPOUND: "Cc1c(C(=O)O)c(=O)n(-c2ccccc2)n1C"
  growth / %: 117
- COMPOUND: "Cc1ccc(C)n1-c1ccsc1C(=O)NNC(=O)CCl"
  growth / %: 103
- COMPOUND: "COc1cccc(/C=N/NC(=S)NC2CC3CCC2C3)c1O (configuration not stated)"
  growth / %: 67
- COMPOUND: "O=C(O)CCCC(=O)O"
  growth / %: 104
- COMPOUND: "CC1=CC(C)(C)NC(=S)N1c1ccc(S(=O)(=O)O)c2cccc(S(=O)(=O)O)c12"
  growth / %: 95.9
- COMPOUND: "O=c1cc(-c2ccccc2)oc2c1ccc1ccccc12"
  growth / %: 94.1
- COMPOUND: "CSc1[nH]c(=O)ncc1F"
  growth / %: 110
- COMPOUND: "Nc1nc2c(c(-c3nc(N)nc4c3CCc3ccccc3-4)n1)CCc1ccccc1-2"
  growth / %: 109
- COMPOUND: "CCOC(=O)C1=C(Nc2ccc(Br)cc2)C(=O)N(CC)C1"
  growth / %: 93.1
- COMPOUND: "CC(=O)NC(N)=S"
  growth / %: 121
- COMPOUND: "COc1cc(/C=C/C(=O)c2ccccc2)cc(OC)c1OC"
  growth / %: 98.6
- COMPOUND: "O=c1[nH]cc(Cl)cc1O"
  growth / %: 91
- COMPOUND: "CNS(=O)(=O)c1ccc(Cl)c(Cl)c1"
  growth / %: 114
- COMPOUND: "Cc1c(O)cccc1O"
  growth / %: 159
- COMPOUND: "O=c1c2ccccc2c(Br)c(Br)c2ccccc12"
  growth / %: 91.4
- COMPOUND: "CC(C)=NNc1ccc([N+](=O)[O-])cc1[N+](=O)[O-]"
  growth / %: 124
- COMPOUND: "OCCN(CCO)C(=S)S"
  growth / %: 111
